Tested on: A498
Assay: NCI tumour cell line growth inhibition, 48 h
Active and inactive are the calls of the source. Rule as the data show it: active = GI50 up to about 1.1 µM and inactive = higher.
A correct response names exactly one class from active, inactive

**Q:** I'd appreciate the recorded outcome for [O-][S+]1CSCS1 (centres undefined) from this test.
**A:** inactive

**Q:** I'd appreciate the recorded outcome for `O=[N+]([O-])c1cc(Cl)cnc1Br` from this test.
**A:** inactive

**Q:** I'd appreciate the recorded outcome for `CCOC(=O)c1cc(-c2ccc(OC)c(OC)c2)c[nH]1` from this test.
**A:** inactive

**Q:** I'd appreciate the recorded outcome for `Nc1ccc(Oc2ccc(C34CC5CC6C3CC3CC4C(C5)C6(c4ccc(Oc5ccc(N)cc5)cc4)C3)cc2)cc1` from this test.
**A:** inactive

**Q:** I'd appreciate the recorded outcome for COC(=N)C1(C#N)NC(c2ccsc2)C(C#N)(C#N)NC1c1ccsc1 (centres undefined) from this test.
**A:** inactive

**Q:** I'd appreciate the recorded outcome for `COC(=O)c1c(C)oc2ccc(OC(C)=O)cc12` from this test.
**A:** inactive

**Q:** I'd appreciate the recorded outcome for `Cc1ccc(-c2cc(-c3ccco3)c(C#N)c(O)n2)cc1` from this test.
**A:** inactive

**Q:** I'd appreciate the recorded outcome for C=CCNC(=O)NCCCC(NC(C)=O)C(=O)NCc1ccccc1 (centres undefined) from this test.
**A:** inactive

**Q:** I'd appreciate the recorded outcome for `CO[C@H]1C[C@@H]2CC[C@@H](C)[C@@](O)(O2)C(=O)C(=O)N2CCCC[C@H]2C(=O)O[C@H]([C@H](C)C[C@@H]2CC[C@@H](OC(=O)C(C)(CO)CO)[C@H](OC)C2)CC(=O)[C@H](C)/C=C(\C)[C@@H](O)[C@@H](OC)C(=O)[C@H](C)C[C@H](C)/C=C/C=C/C=C/1C` from this test.
**A:** active

**Q:** I'd appreciate the recorded outcome for OCC(O)CNc1ccnc2cc(Cl)ccc12 (centres undefined) from this test.
**A:** inactive

**Q:** I'd appreciate the recorded outcome for O=C(OCc1ccccc1)C(Cc1ccccc1)N(Cc1ccccc1)Cc1ccccc1 (centres undefined) from this test.
**A:** inactive

**Q:** I'd appreciate the recorded outcome for CCCCc1ccc(Nc2nc(Cl)c3c(ncn3C3CC(Oc4ccc(C)cc4)C(COc4ccc(C)cc4)O3)n2)cc1 (centres undefined) from this test.
**A:** inactive

**Q:** I'd appreciate the recorded outcome for CC(=O)OC1CC2(O)C(CCC3(C)C(c4ccc(=O)oc4)CCC32O)C2(C)C1=CC(O)C1OC12 (centres undefined) from this test.
**A:** active

**Q:** I'd appreciate the recorded outcome for COc1ccc(N2C(=O)[C@H]3[C@H]4CC(C(C)(C)C)CC[C@H]4c4c(n(C)c5ccccc45)[C@H]3C2=O)cc1 (some centres undefined) from this test.
**A:** inactive

====

System: DMS-273
Assay: NCI tumour cell line growth inhibition, 48 h
Active and inactive are the calls of the source. No stated cut-off is given here; in the data, active = GI50 up to about 1.1 µM and inactive = higher.
A correct response names exactly one class from yes (1) for active, no (0) for inactive

**Q:** I'd appreciate the recorded outcome for `Cc1ccc2cc3cccc(C(=O)NCCN(C)C)c3nc2c1` from this test.
**A:** yes (1)

**Q:** I'd appreciate the recorded outcome for `NC1=C(C(=O)O)C(=O)C(Nc2c(O)cccc2C(=O)O)=CC1=O` from this test.
**A:** no (0)

**Q:** I'd appreciate the recorded outcome for COc1ccc(N[C@@H]2c3cc4c(cc3C(c3cc(OC)c(O)c(OC)c3)[C@H]3C(=O)OCC32)OCO4)cc1OC (stereo not given in full) from this test.
**A:** no (0)

**Q:** I'd appreciate the recorded outcome for `COc1ccc(N(C)Sc2ccccc2)cc1` from this test.
**A:** no (0)

**Q:** I'd appreciate the recorded outcome for CC(C)(C)C1CC[C@H]2c3c([nH]c4ccccc34)[C@H]3C(=O)N(c4ccc(F)cc4)C(=O)[C@H]3[C@H]2C1 (stereo not given in full) from this test.
**A:** no (0)

**Q:** I'd appreciate the recorded outcome for `COC(=O)c1c(C)oc2ccc(OC(C)=O)cc12` from this test.
**A:** no (0)

**Q:** I'd appreciate the recorded outcome for `COc1ccc(NCc2cc(OC)c(OC)c(OC)c2)cc1` from this test.
**A:** yes (1)

**Q:** I'd appreciate the recorded outcome for CC(C)CCCC(C)C1CCC2C3CC([N+](=O)[O-])=C4CC(O)CCC4(C)C3CCC12C (stereo not given) from this test.
**A:** no (0)

**Q:** I'd appreciate the recorded outcome for COc1ccc2c3c([nH]c2c1[N+](=O)[O-])C(C)N(C(=O)/C=C/c1ccccc1)CC3 (stereo not given) from this test.
**A:** no (0)

**Q:** I'd appreciate the recorded outcome for CC(=O)OC1CC2(O)C(CCC3(C)C(c4ccc(=O)oc4)CCC32O)C2(C)C1=CC(O)C1OC12 (stereo not given) from this test.
**A:** yes (1)
